The values you see were collected from patent US9540343B2.

Reported values of CC50 at 5 days for individual entries
# assay-notes: in vitro
# condition-description: human, uninfected MT-4 cells, CC50 (nM), same protocol as Test A, CellTiter-Glo
# Procedure: For the antiviral assay, 40 μL of 1× test concentration of 3-fold serially diluted compound in culture medium with 10% FBS was added to each well of a 384-well plate (10 concentrations) in quadruplicate. […] Cell lysis was carried out by incubating at room temperature for 10 min and then chemiluminescence was read. […] Compound cytotoxicity and the corresponding CC50 values was determined using the same protocol as described in the antiviral assay (Test A) except that uninfected cells were used.

# annotated cases, reported CC50 at 5 days shown
[[record]]
compound = "NC(=O)c1cccc(-c2cccnc2[C@H](Cc2cc(F)cc(F)c2)NC(=O)Cn2ncc3ccccc32)c1"
endpoint_value = "> 53000 nM"

[[record]]
compound = "NC(=O)c1cc(-c2cccnc2[C@H](Cc2cc(F)cc(F)c2)NC(=O)Cn2c(CN3CCOCC3)nc3ccccc32)ccc1F"
endpoint_value = "> 53200 nM"

[[record]]
compound = "NC(=O)c1cc(-c2cccnc2[C@H](Cc2cc(F)cc(F)c2)NC(=O)Cn2c(=O)[nH]c3ccccc32)ccc1F"
endpoint_value = "> 53200 nM"

[[record]]
compound = "NC(=O)c1cc(-c2cccnc2[C@H](Cc2cc(F)cc(F)c2)NC(=O)Cn2nc3c(c2C(F)(F)F)CNC3)ccc1F [Example 200B]"
endpoint_value = "> 53200 nM"


For the next question, use this compound.
Could you tell me which CC50 at 5 days is on file for NC(=O)c1cc(-c2cccnc2[C@H](Cc2cc(F)cc(F)c2)NC(=O)Cn2nc(C(N)=O)c3c2CC2CC32)ccc1F (some centres unmarked) ? > 53200 nM

* * *

# assay-notes: in vitro
# condition-description: human, uninfected MT-4 cells, CC50 (nM), same protocol as Test A, CellTiter-Glo
Mark YES for CC50 at 5 days under 20000 nM, NO if at or over.

Worked examples follow.
[[record]]
compound = "CCN(CC)S(=O)(=O)c1ccc(-c2cccnc2[C@H](Cc2cc(F)cc(F)c2)NC(=O)Cn2nc(C(F)F)c3c2C(F)(F)C2CC32)cc1 (some centres unmarked)"
group_label = "NO"

[[record]]
compound = "Cc1cc2nc(C(F)(F)F)n(CC(=O)N[C@@H](Cc3cc(F)cc(F)c3)c3ncccc3-c3ccc(F)c(C(N)=O)c3)c2cc1C"
group_label = "NO"

[[record]]
compound = "NC(=O)c1cc(-c2cccnc2[C@H](Cc2cccc(F)c2)NC(=O)Cn2nc(C(F)(F)F)c3c2CCSC3)ccc1F [Example 228B]"
group_label = "NO"

[[record]]
compound = "NC(=O)c1cc(-c2cccnc2[C@H](Cc2cc(F)cc(F)c2)NC(=O)Cn2cc(C(F)F)c(C(F)(F)F)n2)ccc1F"
group_label = "NO"

[[record]]
compound = "O=C(Cc1c[nH]c2ccc(F)cc12)N[C@@H](Cc1cc(F)cc(F)c1)c1ncccc1-c1cccc(C(F)(F)F)c1"
group_label = "YES"

[[record]]
compound = "NC(=O)c1cc(-c2cccnc2[C@H](Cc2cc(F)cc(F)c2)NC(=O)Cn2nc(C(F)F)c3c2C(=O)C2CC32)ccc1F (some centres unmarked) [Example 233B]"
group_label = "NO"

[[record]]
compound = "NC(=O)c1cc(-c2cccnc2[C@H](Cc2cc(F)cc(F)c2)NC(=O)Cn2nc(C(F)F)c3c2C(F)(F)CCC3)ccc1F"
group_label = "YES"

[[record]]
compound = "NC(=O)c1cc(-c2cccnc2[C@H](Cc2cc(F)cc(F)c2)NC(=O)Cn2nc(Br)nc2C2CC2)ccc1F"
group_label = "NO"


Determine if NC(=O)c1cc(-c2cccnc2[C@H](Cc2cc(F)cc(F)c2)NC(=O)Cn2nc(C(F)(F)F)c3cc(F)ccc32)ccc1F [Example 271B] shows CC50 at 5 days strictly lower than 20000 nM. YES

Determine if NC(=O)c1cc(-c2cccnc2[C@H](Cc2cc(F)cc(F)c2)NC(=O)Cc2cc(=O)[nH]c3ccccc23)ccc1F shows CC50 at 5 days strictly lower than 20000 nM. NO

Determine if NC(=O)c1cc(-c2cccnc2[C@H](Cc2cc(F)cc(F)c2)NC(=O)Cn2nc(C(F)(F)F)c3c2CC(=O)C3)ccc1F shows CC50 at 5 days strictly lower than 20000 nM. NO

Determine if CC(C)(C)OC(=O)N1CC(=O)C[C@H]1C(=O)N[C@@H](Cc1cc(F)cc(F)c1)c1ncccc1-c1ccc(F)c(C(N)=O)c1 shows CC50 at 5 days strictly lower than 20000 nM. NO

Determine if O=C(Cc1c[nH]c2ccc(F)cc12)N[C@@H](Cc1cc(F)cc(F)c1)c1ncccc1-c1cccc(C(=O)NC2CC2)c1 shows CC50 at 5 days strictly lower than 20000 nM. YES

Determine if Cc1nc2n(CC(=O)N[C@@H](Cc3cc(F)cc(F)c3)c3ncccc3-c3ccc(F)c(C(N)=O)c3)c3ccccc3n2n1 shows CC50 at 5 days strictly lower than 20000 nM. NO
